Provenance of the data: the supplement of paper PMC6555819

Tested on: FXR:RXRa (NR concentration 270 nM, RXRa partner concentration 90 nM)
Assay summary: PBM binding z-score (relative to random genomic background probes); higher = stronger binding; sequences stand for … in GC…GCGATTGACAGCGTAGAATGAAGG
Attribute: PBM binding z-score
Answer with the value's number alone.

[[record]]
sequence_record = "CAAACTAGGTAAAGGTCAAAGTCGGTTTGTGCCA"
endpoint_name = "PBM binding z-score"
numeric_readout = 6.46

[[record]]
sequence_record = "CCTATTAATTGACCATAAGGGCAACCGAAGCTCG"
endpoint_name = "PBM binding z-score"
numeric_readout = 0.865

[[record]]
sequence_record = "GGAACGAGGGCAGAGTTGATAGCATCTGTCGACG"
endpoint_name = "PBM binding z-score"
numeric_readout = -0.283

[[record]]
sequence_record = "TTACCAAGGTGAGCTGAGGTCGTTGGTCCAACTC"
endpoint_name = "PBM binding z-score"
numeric_readout = 1.55


Field PBM binding z-score (entry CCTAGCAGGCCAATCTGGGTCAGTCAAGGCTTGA ) reads 0.816

Field PBM binding z-score (entry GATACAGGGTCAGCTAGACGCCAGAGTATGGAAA ) reads 4.79
